target: Amine oxidase [flavin-containing] B (Homo sapiens)
Sequence (P27338 whole entry): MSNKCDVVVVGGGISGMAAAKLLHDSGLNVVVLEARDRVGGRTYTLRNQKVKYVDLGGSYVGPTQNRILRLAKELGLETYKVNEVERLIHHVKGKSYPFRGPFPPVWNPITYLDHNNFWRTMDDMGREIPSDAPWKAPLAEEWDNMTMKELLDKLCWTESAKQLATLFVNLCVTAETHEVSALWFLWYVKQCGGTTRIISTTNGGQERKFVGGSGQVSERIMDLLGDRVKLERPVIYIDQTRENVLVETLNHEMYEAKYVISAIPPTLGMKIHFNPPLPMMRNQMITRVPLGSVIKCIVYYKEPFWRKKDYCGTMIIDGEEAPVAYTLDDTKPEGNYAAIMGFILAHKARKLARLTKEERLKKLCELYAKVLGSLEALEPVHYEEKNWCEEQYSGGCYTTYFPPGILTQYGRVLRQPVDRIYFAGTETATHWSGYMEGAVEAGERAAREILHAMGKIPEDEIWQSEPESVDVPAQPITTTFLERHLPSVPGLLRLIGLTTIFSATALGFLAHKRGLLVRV
Grouping key: IC50. Bins: low class (below 2000 nM), middle class (2000 nM to below 5000 nM), high class (5000 nM or more)

These solved cases illustrate the format of a correct answer.
smiles_text=O=c1ccc2ccc(OCCCCCN3CCN(CCCNc4c5c(nc6ccccc46)CCCC5)CC3)cc2o1 group="middle class"
smiles_text=O=c1ccc2ccc(OCCN3CCN(CCNc4c5c(nc6ccccc46)CCCC5)CC3)cc2o1 group="middle class"
smiles_text=O=c1ccc2ccc(OCCCCCCN3CCN(CCCNc4c5c(nc6ccccc46)CCCC5)CC3)cc2o1 group="high class"
smiles_text=O=c1ccc2ccc(OCCCN3CCN(CCCNc4c5c(nc6ccccc46)CCCC5)CC3)cc2o1 group="middle class"
smiles_text=O=c1ccc2ccc(OCCCCCCN3CCN(CCNc4c5c(nc6ccccc46)CCCC5)CC3)cc2o1 group="high class"
smiles_text=Nc1cc(=O)oc2cc(OCCN3CCN(CCCNc4c5c(nc6ccccc46)CCCC5)CC3)ccc12 group="high class"
smiles_text=Cc1cc(=O)oc2cc(OCCN3CCN(CCCNc4c5c(nc6ccccc46)CCCC5)CC3)ccc12 group="low class"

Please look at the following molecule next.
Bin? "Cc1c(Cl)c(=O)oc2cc(OCCN3CCN(CCCNc4c5c(nc6ccccc46)CCCC5)CC3)ccc12"
low class

* * *

Quick record: log10 IC50, Acetylcholinesterase (Electrophorus electricus).
Each number you see is log10 of IC50, and the unit inside the log is nM.

# count of solved cases: 2
smiles_text=Cc1c(C)c2ccc(OCCN3CCN(CCCNc4c5c(nc6ccccc46)CCCC5)CC3)cc2oc1=O assayed_target="Acetylcholinesterase (Electrophorus electricus)" meas_value=1.53
smiles_text=O=c1ccc2ccc(OCCCCCN3CCN(CCCNc4c5c(nc6ccccc46)CCCC5)CC3)cc2o1 assayed_target="Acetylcholinesterase (Electrophorus electricus)" meas_value=1.68

What log10 IC50 appears in the records for this compound with Acetylcholinesterase (Electrophorus electricus)? "O=c1ccc2ccc(OCCN3CCN(CCCNc4c5c(nc6ccccc46)CCCC5)CC3)cc2o1"
Sequence (O42275 whole entry): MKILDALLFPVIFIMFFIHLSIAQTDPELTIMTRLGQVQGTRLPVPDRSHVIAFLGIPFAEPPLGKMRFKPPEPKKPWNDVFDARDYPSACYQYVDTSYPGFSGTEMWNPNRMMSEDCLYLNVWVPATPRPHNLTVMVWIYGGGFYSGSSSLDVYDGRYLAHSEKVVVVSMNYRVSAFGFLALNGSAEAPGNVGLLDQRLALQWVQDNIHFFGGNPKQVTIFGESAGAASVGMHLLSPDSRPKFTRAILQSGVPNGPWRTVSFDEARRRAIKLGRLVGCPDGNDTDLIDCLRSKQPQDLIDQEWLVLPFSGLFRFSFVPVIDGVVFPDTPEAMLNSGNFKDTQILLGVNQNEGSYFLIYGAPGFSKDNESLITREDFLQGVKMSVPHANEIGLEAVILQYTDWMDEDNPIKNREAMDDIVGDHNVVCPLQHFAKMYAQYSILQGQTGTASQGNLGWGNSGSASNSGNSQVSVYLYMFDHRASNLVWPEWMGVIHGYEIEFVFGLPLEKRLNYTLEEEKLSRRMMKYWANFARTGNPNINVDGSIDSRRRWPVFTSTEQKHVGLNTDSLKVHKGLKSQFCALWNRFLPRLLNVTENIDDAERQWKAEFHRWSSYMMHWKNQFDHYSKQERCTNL
1.25

How about "O=c1ccc2ccc(OCCCCN3CCN(CCNc4c5c(nc6ccccc46)CCCC5)CC3)cc2o1" ?
1.96

How about "O=c1oc2cc(OCCN3CCN(CCCNc4c5c(nc6ccccc46)CCCC5)CC3)ccc2c2c1CCCC2" ?
2.16

How about "O=c1ccc2ccc(OCCCCCCN3CCN(CCNc4c5c(nc6ccccc46)CCCC5)CC3)cc2o1" ?
2.52

How about "COc1cc(=O)oc2cc(OCCN3CCN(CCCNc4c5c(nc6ccccc46)CCCC5)CC3)ccc12" ?
1.65

How about "O=c1ccc2ccc(OCCN3CCN(CCNc4c5c(nc6ccccc46)CCCC5)CC3)cc2o1" ?
1.84

How about "CCOc1cc(=O)oc2cc(OCCN3CCN(CCCNc4c5c(nc6ccccc46)CCCC5)CC3)ccc12" ?
1.71

How about "Cc1c(Cl)c(=O)oc2cc(OCCN3CCN(CCCNc4c5c(nc6ccccc46)CCCC5)CC3)ccc12" ?
1.50

How about "O=c1cc(C(F)(F)F)c2ccc(OCCN3CCN(CCCNc4c5c(nc6ccccc46)CCCC5)CC3)cc2o1" ?
1.83

* * *

Reported IC50 values are given for each entry in this list.
target: Amine oxidase [flavin-containing] A (Homo sapiens, UniProt P21397); assay: Inhibition of human MAO-A using p-tyramine as substrate assessed as H2O2 production by amplex red assay
Sequence (P21397 whole entry): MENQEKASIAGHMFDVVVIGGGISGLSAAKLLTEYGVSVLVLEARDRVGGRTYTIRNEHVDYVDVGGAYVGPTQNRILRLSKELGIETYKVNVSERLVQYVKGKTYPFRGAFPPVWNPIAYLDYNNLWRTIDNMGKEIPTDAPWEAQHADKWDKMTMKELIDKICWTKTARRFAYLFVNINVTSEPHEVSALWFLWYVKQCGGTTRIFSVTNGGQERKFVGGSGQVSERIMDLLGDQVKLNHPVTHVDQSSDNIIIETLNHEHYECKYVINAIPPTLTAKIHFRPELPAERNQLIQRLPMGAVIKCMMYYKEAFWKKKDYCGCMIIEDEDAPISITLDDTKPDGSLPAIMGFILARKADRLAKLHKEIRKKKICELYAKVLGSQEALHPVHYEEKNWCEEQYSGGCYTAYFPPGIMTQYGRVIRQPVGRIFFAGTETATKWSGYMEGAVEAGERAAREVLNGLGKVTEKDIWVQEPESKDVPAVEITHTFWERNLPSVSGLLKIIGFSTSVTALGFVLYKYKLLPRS
Just the number please, in µM, no unit attached.

smiles_text=O=c1ccc2ccc(OCCCCCCN3CCN(CCCNc4c5c(nc6ccccc46)CCCC5)CC3)cc2o1 assayed_target="Amine oxidase [flavin-containing] A (Homo sapiens, UniProt P21397)" meas_value=6.05
smiles_text=Cc1cc(=O)oc2cc(OCCN3CCN(CCCNc4c5c(nc6ccccc46)CCCC5)CC3)ccc12 assayed_target="Amine oxidase [flavin-containing] A (Homo sapiens, UniProt P21397)" meas_value=66.7
smiles_text=Cc1c(C)c2ccc(OCCN3CCN(CCCNc4c5c(nc6ccccc46)CCCC5)CC3)cc2oc1=O assayed_target="Amine oxidase [flavin-containing] A (Homo sapiens, UniProt P21397)" meas_value=15.1
smiles_text=O=c1ccc2ccc(OCCCCCN3CCN(CCCNc4c5c(nc6ccccc46)CCCC5)CC3)cc2o1 assayed_target="Amine oxidase [flavin-containing] A (Homo sapiens, UniProt P21397)" meas_value=10.3
smiles_text=Cc1c(Cl)c(=O)oc2cc(OCCN3CCN(CCCNc4c5c(nc6ccccc46)CCCC5)CC3)ccc12 assayed_target="Amine oxidase [flavin-containing] A (Homo sapiens, UniProt P21397)" meas_value=53.1

Item "O=c1ccc2ccc(OCCCCCCN3CCN(CCNc4c5c(nc6ccccc46)CCCC5)CC3)cc2o1" has what recorded IC50?
6.02

How about "CCOc1cc(=O)oc2cc(OCCN3CCN(CCCNc4c5c(nc6ccccc46)CCCC5)CC3)ccc12" ?
78.6

How about "O=c1ccc2ccc(OCCCCCN3CCN(CCNc4c5c(nc6ccccc46)CCCC5)CC3)cc2o1" ?
9.18

How about "O=c1oc2cc(OCCN3CCN(CCCNc4c5c(nc6ccccc46)CCCC5)CC3)ccc2c2c1CCCC2" ?
22
